B1: ETS2 (parent)
chain: TSGKRYVYRFVCDLQNLLGFTPEE

Variants of: B1
protocol.notes: protein stability index of a GFP-peptide fusion (GPS, HEK-293T) (PSI 1-6); higher = more stable;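 note: lentivirally expressed fusions sorted by FACS into six bins by GFP to DsRed ratio, PSI derived from sequencing read proportions per bin multiplied by bin number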
measurement.context: c terminus: a fixed tail appended
protein stability index vs 2: at or above is yes, below is no.

> print(dat)
    mutation.name  classification
 1           E23Q             yes
 2           T21E             yes
 3           G19H              no
 4           L18T              no
 5           N16D             yes
 6           Q15I             yes
 7           G19M              no
 8           E24M              no
 9           L17K             yes
10           E23P             yes
11           Q15A             yes
12           T21D              no
13           L18H              no
14           F20A             yes
15           P22H             yes
16           F20P             yes
17           P22S              no
18           Q15G             yes
19           E23N             yes
20           P22T             yes
21           Q15C             yes
22           Q15W              no
23           L14Y             yes
24           T21Q              no
25           G19Q             yes
26           N16Y              no
27           E24G             yes
28           L18M             yes
